test: Urinary excretion study in rats after oral NS, SF or CNS (LC–MS/MS); format: in vivo; settings: rat urine, oral CNS 110 mg/kg, 2 h
Reported Metric: Accumulative excretion amount

Compound	Observed Measurement
CC(C)=CCC[C@](C)(O[C@@H]1O[C@H](CO[C@@H]2O[C@H](CO)[C@@H](O)[C@H](O)[C@H]2O)[C@@H](O)[C@H](O)[C@H]1O)[C@H]1CC[C@]2(C)[C@@H]1[C@H](O)C[C@@H]1[C@@]3(C)CC[C@H](O[C@@H]4O[C@H](CO)[C@@H](O)[C@H](O)[C@H]4O[C@@H]4O[C@H](CO)[C@@H](O)[C@H](O)[C@H]4O)C(C)(C)[C@@H]3CC[C@]12C [ginsenoside Rb1]	0.075 ± 0.093 µg
CC(C)=CCC[C@](C)(O[C@@H]1O[C@H](CO)[C@@H](O)[C@H](O)[C@H]1O)[C@H]1CC[C@]2(C)[C@@H]1[C@H](O)C[C@@H]1[C@@]3(C)CC[C@H](O)C(C)(C)[C@@H]3[C@@H](O[C@@H]3O[C@H](CO)[C@@H](O)[C@H](O)[C@H]3O[C@@H]3O[C@@H](C)[C@H](O)[C@@H](O)[C@H]3O)C[C@]12C [ginsenoside Re]	0.133 ± 0.062 µg
CC(C)=CCC[C@](C)(O[C@@H]1O[C@H](CO)[C@@H](O)[C@H](O)[C@H]1O)[C@H]1CC[C@]2(C)[C@@H]1[C@H](O)C[C@@H]1[C@@]3(C)CC[C@H](O)C(C)(C)[C@@H]3[C@@H](O[C@@H]3O[C@H](CO)[C@@H](O)[C@H](O)[C@H]3O)C[C@]12C [ginsenoside Rg1]	1.881 ± 1.001 µg
CC(C)=CCC[C@](C)(O[C@@H]1O[C@H](CO)[C@@H](O)[C@H](O)[C@H]1O)[C@H]1CC[C@]2(C)[C@@H]1[C@H](O)C[C@@H]1[C@@]3(C)CC[C@H](O[C@@H]4O[C@H](CO)[C@@H](O)[C@H](O)[C@H]4O[C@@H]4O[C@H](CO)[C@@H](O)[C@H](O)[C@H]4O)C(C)(C)[C@@H]3CC[C@]12C [ginsenoside Rd]	0.005 ± 0.005 µg
